The measurements presented in this section are drawn from paper PMC11260452.

measuredOn: Gsx2HD (Mus musculus, UniProt P31316 203-264)
Sequence (P31316 203-264): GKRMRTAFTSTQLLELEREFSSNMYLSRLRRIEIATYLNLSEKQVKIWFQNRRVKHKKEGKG
assayComment: ITC; K 6.8 ± 4.2 x10^7 M-1; N 1.02; ITC: 50 mM sodium phosphate pH 6.5, 150 mM NaCl, 20 C; EMSA: 35 nM probe, 15 min room temperature, buffer as in cited ref 31
conditionSummary: protein: recombinant; tags: N-terminal His-tag, cleaved with PreScission; chain copies: 2; 5' overhang 1 nt on each strand
readoutName: pKd
Remember the convention: pKd equals -log10 of concentration in molar.

*Q* Complete the entry with pKd for TAATTA consensus 15-mer (dsDNA) DNA 1: TGAGCTAATTAAAGC DNA 2: AGCTTTAATTAGCTC
*A* 7.82
